- experimental_protocol: qHTS assay to identify small molecule agonists of the farnesoid-X-receptor (FXR) signaling pathway - cell viability counter screen (AID 743218); also: nearly all actives have a fitted effect of over 45% in size; also: potency is read from the fitted curve at half-maximal effect
- experimental_context: FXR-bla HEK293T viability, CellTiter-Glo luminescence, 16 h; series mostly up to 62.6 µM
Inconclusive results are not listed. Calls of active or inactive are those of the source. Calls follow the shape of the dose curve; as a rule, active = well fitted cell-killing curve with a large enough effect in the repeat runs; inconclusive = weak or mixed curves, or effect the other way; inactive = no such curve, though single readings can be large or run the other way.
property_label: Potency

Previously resolved entries follow.
INSERT INTO results (molecule, observed_measurement) VALUES
  ('C[C@@H](NCCCc1cccc(C(F)(F)F)c1)c1cccc2ccccc12', '29.8 µM (active)'),
  ('O=[N+]([O-])c1cc(Cl)c(Cl)c(Cl)c1Cl', 'inactive'),
  ('CN1CCN(CCC(=O)N2c3ccccc3Sc3ccc(C(F)(F)F)cc32)CC1', '21.1 µM (active)'),
  ('COc1ccc(CN2CCN(C(c3ccc(F)cc3)c3ccc(F)cc3)CC2)c(OC)c1OC', '21.1 µM (active)'),
  ('O=c1[nH]sc2ccccc12', '49 µM (active)');

Please give Potency, item by item, for the list that follows.
1. CCC(CN)=C(c1ccccc1)c1ccccc1
2. Clc1ccc2n[nH]nc2c1
3. CN(C)[C@@H]1C(=O)C(C(N)=O)=C(O)[C@@]2(O)C(=O)C3=C(O)c4c(O)cccc4C[C@H]3C[C@@H]12
4. O=c1cc(-c2ccc(O)cc2)oc2cc(O)cc(O)c12
5. CC[C@H]1O[C@]2(CC[C@@H]1C)C[C@@H]1C[C@@H](C/C=C(\C)C[C@@H](C)/C=C/C=C3\CO[C@@H]4[C@H](O)C(C)=C[C@@H](C(=O)O1)[C@]34O)O2

1. 23.7 µM (active)
2. inactive
3. inactive
4. inactive
5. 21.7 µM (active)

The following molecules each have a reported value; give each one's Potency.
1. C[n+]1cc2c3c(ccc2c2ccc4cc5c(cc4c21)OCO5)OCO3
2. CC[C@@]1(O)C(=O)OCc2c1cc1n(c2=O)Cc2c-1nc1ccccc1c2/C=N/OC(C)(C)C
3. C/C(=C(/OCCOc1ccc(Cl)cc1)c1ccc(Cl)cc1Cl)n1ccnc1
4. CCN(Cc1cccnc1)C(=O)c1cccc(Cl)c1[C@]1(C)C(=O)N(Cc2ccc(OC)cc2OC)c2ccc(Cl)cc21
5. CCCCCCCCCCCCCCCC[N+](C)(C)CCN(Cc1ccc(OC)cc1)c1ncccn1

1. 1.46 µM (active)
2. 13.3 µM (active)
3. inactive
4. 3.63 µM (active)
5. 29.8 µM (active)

Hey, quick one: what's Potency for each of these?
1. C/C=C1/C(=O)C[C@H]2[C@@H]3CCC4=CC(=O)CC[C@]4(C)[C@H]3CC[C@]12C
2. O=C(N/N=C/c1ccccc1O)c1ccncc1
3. OCCCCCCCCCCCCBr
4. CCC(C)Nc1ccc(NC(C)CC)cc1 (configuration not stated)
5. CCCC(c1cc(C(C)(C)C)c(O)cc1C)c1cc(C(C)(C)C)c(O)cc1C

1: inactive; 2: inactive; 3: inactive; 4: 22.3 µM (active); 5: 12.5 µM (active)

Look up Potency for the entries below, preserving their order.
1. CCCCCCCCCOC(=O)c1ccc(O)cc1
2. O=C(OCC1CO1)C1CCCCC1C(=O)OCC1CO1 (configuration not stated)

48.3 µM (active)
inactive
